B1: Pistol ribozyme (parent)
chain: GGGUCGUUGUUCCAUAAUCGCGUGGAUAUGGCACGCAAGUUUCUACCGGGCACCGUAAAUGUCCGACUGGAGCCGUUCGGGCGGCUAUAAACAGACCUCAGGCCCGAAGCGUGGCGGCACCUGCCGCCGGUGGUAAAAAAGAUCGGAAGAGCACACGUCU

variants of: B1; assay: aptazyme ON/OFF ratio, guanine; higher = stronger switching; co-transcriptional cleavage with and without guanine
ASSAY_ENDPOINT: aptazyme ON/OFF ratio

[[record]]
residue_change = "U7C U8C G9U U10G U11G C12A"
assay_endpoint = "aptazyme ON/OFF ratio"
value_reported = 1.13

[[record]]
residue_change = "U7C G9U U10G C12A"
assay_endpoint = "aptazyme ON/OFF ratio"
value_reported = 1.21

[[record]]
residue_change = "U8G G9U U11G"
assay_endpoint = "aptazyme ON/OFF ratio"
value_reported = 1.36

[[record]]
residue_change = "U7C U8A G9A U11G C13U"
assay_endpoint = "aptazyme ON/OFF ratio"
value_reported = 1.25

[[record]]
residue_change = "U7G U8G G9C C12G C13A"
assay_endpoint = "aptazyme ON/OFF ratio"
value_reported = 1.28

[[record]]
residue_change = "U7C G9C U10A C13A"
assay_endpoint = "aptazyme ON/OFF ratio"
value_reported = 1.04

[[record]]
residue_change = "U7C U8A G9C U10C U11A C12A C13U"
assay_endpoint = "aptazyme ON/OFF ratio"
value_reported = 1.04

[[record]]
residue_change = "U7A U8G U10G U11G C13U"
assay_endpoint = "aptazyme ON/OFF ratio"
value_reported = 1.32

[[record]]
residue_change = "U7C U8G U10G U11C C12U"
assay_endpoint = "aptazyme ON/OFF ratio"
value_reported = 1.16

[[record]]
residue_change = "U7A U8A G9C U10A U11C C12G C13G"
assay_endpoint = "aptazyme ON/OFF ratio"
value_reported = 1.14

[[record]]
residue_change = "U7C U8A G9U U10C U11A C12G"
assay_endpoint = "aptazyme ON/OFF ratio"
value_reported = 1.12

[[record]]
residue_change = "U7C U8G U10C U11C C12U"
assay_endpoint = "aptazyme ON/OFF ratio"
value_reported = 2.76

[[record]]
residue_change = "U8A G9A U11G C13G"
assay_endpoint = "aptazyme ON/OFF ratio"
value_reported = 1.09

[[record]]
residue_change = "G9C U10C U11G C12U C13G"
assay_endpoint = "aptazyme ON/OFF ratio"
value_reported = 1.05

[[record]]
residue_change = "U8G G9A U10G U11G C12A C13G"
assay_endpoint = "aptazyme ON/OFF ratio"
value_reported = 1.16

[[record]]
residue_change = "U7C U8G U10G U11G C12U C13U"
assay_endpoint = "aptazyme ON/OFF ratio"
value_reported = 1.4

[[record]]
residue_change = "U8C G9U U10A C12U C13A"
assay_endpoint = "aptazyme ON/OFF ratio"
value_reported = 1.18

[[record]]
residue_change = "U7A G9A U10A C13A"
assay_endpoint = "aptazyme ON/OFF ratio"
value_reported = 1.26

[[record]]
residue_change = "G9U U11G C13A"
assay_endpoint = "aptazyme ON/OFF ratio"
value_reported = 1.37

[[record]]
residue_change = "U7A U8G G9C U10G U11G C12A C13U"
assay_endpoint = "aptazyme ON/OFF ratio"
value_reported = 1.22

[[record]]
residue_change = "U8G G9A U10G U11G C13U"
assay_endpoint = "aptazyme ON/OFF ratio"
value_reported = 1.45

[[record]]
residue_change = "U7C U8G G9U U10A U11C C12A C13U"
assay_endpoint = "aptazyme ON/OFF ratio"
value_reported = 1.13

[[record]]
residue_change = "U7A C12U"
assay_endpoint = "aptazyme ON/OFF ratio"
value_reported = 1.48

[[record]]
residue_change = "U7A G9U U10G C12G C13U"
assay_endpoint = "aptazyme ON/OFF ratio"
value_reported = 1.25

[[record]]
residue_change = "U7A U8A G9U U10A C12U"
assay_endpoint = "aptazyme ON/OFF ratio"
value_reported = 1.16

[[record]]
residue_change = "U8A G9C U10A U11C C12G C13A"
assay_endpoint = "aptazyme ON/OFF ratio"
value_reported = 1.13

[[record]]
residue_change = "U8A G9C U10A U11G C12U"
assay_endpoint = "aptazyme ON/OFF ratio"
value_reported = 1.25

[[record]]
residue_change = "U7G U8A G9A U11G C12A C13G"
assay_endpoint = "aptazyme ON/OFF ratio"
value_reported = 1.13

[[record]]
residue_change = "U7C U8A U10G U11C C12A C13A"
assay_endpoint = "aptazyme ON/OFF ratio"
value_reported = 1.37

[[record]]
residue_change = "U8G G9U U10C U11C C12G C13A"
assay_endpoint = "aptazyme ON/OFF ratio"
value_reported = 1.07

[[record]]
residue_change = "U7C U8A U11C C12U C13A"
assay_endpoint = "aptazyme ON/OFF ratio"
value_reported = 1.31

[[record]]
residue_change = "U8C G9C U10A U11G C12A C13A"
assay_endpoint = "aptazyme ON/OFF ratio"
value_reported = 1.16

[[record]]
residue_change = "G9U U10C U11A C12G C13U"
assay_endpoint = "aptazyme ON/OFF ratio"
value_reported = 1.27

[[record]]
residue_change = "U7C G9A U10C U11A C13G"
assay_endpoint = "aptazyme ON/OFF ratio"
value_reported = 1.12

[[record]]
residue_change = "U7G U8C G9C U10A U11C C12G C13G"
assay_endpoint = "aptazyme ON/OFF ratio"
value_reported = 1.14

[[record]]
residue_change = "U7G U8C G9A U10G U11C C12A C13G"
assay_endpoint = "aptazyme ON/OFF ratio"
value_reported = 1.16

[[record]]
residue_change = "U7G U10G C12A C13U"
assay_endpoint = "aptazyme ON/OFF ratio"
value_reported = 1.34

[[record]]
residue_change = "U8C G9A U11C"
assay_endpoint = "aptazyme ON/OFF ratio"
value_reported = 1.09

[[record]]
residue_change = "U8A G9C U11A C12A C13U"
assay_endpoint = "aptazyme ON/OFF ratio"
value_reported = 1.21

[[record]]
residue_change = "U7A G9C U10C C12U"
assay_endpoint = "aptazyme ON/OFF ratio"
value_reported = 1.17

[[record]]
residue_change = "U8A G9U U10C U11A C12A"
assay_endpoint = "aptazyme ON/OFF ratio"
value_reported = 1.11

[[record]]
residue_change = "U7C U8C G9C U10G U11C C12G C13G"
assay_endpoint = "aptazyme ON/OFF ratio"
value_reported = 1.1

[[record]]
residue_change = "U7G U8A G9U U10C U11G C12A"
assay_endpoint = "aptazyme ON/OFF ratio"
value_reported = 1.06

[[record]]
residue_change = "U7A U8A U10A U11C C13A"
assay_endpoint = "aptazyme ON/OFF ratio"
value_reported = 1.04

[[record]]
residue_change = "U8G U10C U11A C12A"
assay_endpoint = "aptazyme ON/OFF ratio"
value_reported = 1.39

[[record]]
residue_change = "U7A U8A G9U U10G C13G"
assay_endpoint = "aptazyme ON/OFF ratio"
value_reported = 1.21

